The following compounds were reported with IC50 values on Insulin-like growth factor 1 receptor (Homo sapiens) in different studies.
endpoint: IC50 (nM)

[
  {
    "compound": "CCc1cc(Nc2ncc(Cl)c(Nc3ccc(-c4cscn4)cc3P(C)(C)=O)n2)c(OC)cc1N1CCC(N2CCN(C)CC2)CC1",
    "units": "nM",
    "IC50": 149
  },
  {
    "compound": "O=C1CCCN1C1CC(c2ccc(Cl)cc2F)N2CCc3cccc1c32 (stereo not shown)",
    "units": "nM",
    "IC50": 1500
  },
  {
    "compound": "C[Si](C)(C)COc1cccc(-c2cn(C3CC(CN)C3)c3ncnc(N)c23)c1 (stereo not shown)",
    "units": "nM",
    "IC50": 130
  }
]

(1) NCC1CC(n2cc(-c3cccc(NCc4ccccc4)c3)c3c(N)ncnc32)C1 (stereo not shown)
(2) NCC1CC(n2cc(-c3cccs3)c3c(N)ncnc32)C1 (stereo not shown)
(3) Cc1ccc(Nc2ncc(Cl)c(Nc3ccc4ccccc4c3)n2)cc1NC(=O)/C=C/CN(C)C
(4) CC(C)(C)OC(=O)Oc1ccc(C2CC(N3CCCC3=O)c3cccc4c3N2CC4)cc1 (stereo not shown)
Request: Sort entries by IC50 from minimum to maximum value. Give the labels in the order requested.
Response: 3, 1, 4, 2
(3: 200 nM, 1: 820 nM, 4: 1800 nM, 2: 5600 nM)

(a) COc1cc(N2CCN(C3CC3)CC2)c(C)cc1Nc1ncc(Br)c(Nc2ccc3nc(C4CC4)ccc3c2P(C)(C)=O)n1
(b) CCc1cc(Nc2ncc(Br)c(Nc3ccc(-c4cnn(C)c4)c(C)c3P(C)(C)=O)n2)c(OC)cc1N1CCC(N2CCN(C)CC2)CC1
Request: Hello, I am sorting some records. Could you say if a or b has the smaller IC50 value? Mark your selection by writing its label.
Response: b
(b: 28.7 nM, a: 586 nM)

====

The following molecules were reported with IC50 values on Insulin-like growth factor 1 receptor (Homo sapiens, UniProt P08069) in different studies.

Recorded results for 3 molecules are shown here.
[
  {
    "molecule": "O=C1CCCN1C1CC(c2cccc(Cl)c2)N2CCc3cccc1c32 (stereo not shown)",
    "IC50": "2900 nM"
  },
  {
    "molecule": "COc1cc(Nc2ncc(Br)c(Nc3ccc4nc(C5CC5)ccc4c3P(C)(C)=O)n2)c(C2CCOCC2)cc1N1CCC(N2CCN(C)CC2)CC1",
    "IC50": "> 3000 nM"
  },
  {
    "molecule": "CCc1cc(Nc2ncc(Cl)c(Nc3ccc(-c4ccnc5c4ccn5C)cc3P(C)(C)=O)n2)c(OC)cc1N1CCC(N2CCN(C)CC2)CC1",
    "IC50": "886 nM"
  }
]

Request: Reported IC50 for Insulin-like growth factor 1 receptor (Homo sapiens, UniProt P08069), given "CN1CCC(N2Cc3cc4[nH]c(-c5c(NC[C@@H](O)COc6ccc7c(c6Cl)OCO7)cc[nH]c5=O)nc4cc3C2=O)CC1" ?
Response: < 500 nM

Request: Reported IC50 for Insulin-like growth factor 1 receptor (Homo sapiens, UniProt P08069), given "Cc1ccc(OC[C@H](O)CNc2cc[nH]c(=O)c2-c2nc3cc4c(cc3[nH]2)C(=O)N(CCCN2CCCC2)C4=O)c2c1CCC2" ?
Response: < 500 nM

Request: Reported IC50 for Insulin-like growth factor 1 receptor (Homo sapiens, UniProt P08069), given "CN1CCN(CCN2C(=O)c3cc4nc(-c5c(NC[C@@H](O)c6cccc(Cl)c6)cc[nH]c5=O)[nH]c4cc3C2=O)CC1" ?
Response: 500 to 5000 nM

Request: Reported IC50 for Insulin-like growth factor 1 receptor (Homo sapiens, UniProt P08069), given CC(Nc1cc[nH]c(=O)c1-c1nc2cc3c(cc2[nH]1)C(=O)N(C1CCN(C)CC1)C3=O)C1COc2ccccc2O1 (stereo not shown) ?
Response: 5000 to 15000 nM
